target: T1, biotinylated goat anti-human kappa light chain; assay: ELISA; positive control; further: test concentration or dose not given here
T1 construct: Positive control of the ELISA
Entries and their optical density values follow.
Could you give me the number in OD? Just the number is fine.

Note to self: optical density recorded for 369_B02 (antibody, V domains shown, VH/VL only) VH: EVQLLESGGGLVQPGGSLRLSCAASGFTFDSYSMNWVRQAPGKGLEWVSGINYNGGYKSYADSVKGRFTISRDNSKNTLYLQMNSLRAEDTAVYYCARSATWHDTHLDYWGQGTLVTVSS VL: DIQMTQSPSSLSASVGDRVTITCRASQSILSYLNWYQQKPGKAPKLVIYAATSRASGVPSRFSGSGSGTDFTLTISSLQPEDFATYYCQQSYNLPLTFGGGTKVEIK was 3.52

Note to self: optical density recorded for 373_H10 (antibody, V domains shown, VH/VL only) VH: EVQLLESGGGLVQPGGSLRLSCAASGFTFSSYSMNWVRQAPGKGLEWVAGINYNGGYTGYADSVKGRFTISRDNSKNTLYLQMNSLRAEDTAVYYCARSATWHDTHLDYWGQGTLVTVSS VL: DIQMTQSPSSLSASVGDRVTITCRASQSILSYVNWYQQKPGKAPKLLIYAATSRASGVPSRFSGSGSGTDFTLTISSLQPEDFATYYCQQSYSLPLTFGGGTKVEIK was 3.19

Note to self: optical density recorded for 368_C01 (antibody, V domains shown, VH/VL only) VH: EVQLLESGGGLVQPGGSLRLSCAASGFTFDSYGMNWVRQAPGKGLEWVAGINYNGGYTGYADSVKGRFTISRDNSKNTLYLQMNSLRAEDTAVYYCARSATWHDTALDYWGQGTLVTVSS VL: DIQMTQSPSSLSASVGDRVTITCRASQSIITYLNWYQQKPGKAPKLLIYAATSRASGVPSRFSGSGSGTDFTLTISSLQPEDFATYYCQQSYDSPLTFGGGTKVEIK was 3.71
